test: HepG2 cell viability effects, profiling panel, calcein-AM fluorescence, 48 h, basal (AID 1164); details: higher = more signal; further: test concentration not given here
Quick reference for z-score among some molecules
Please respond with just the number, no unit label.

Please review the following examples before continuing.
molecule: COC(=O)C[C@H]1O[C@]2(C(=O)N(C)c3ccccc32)[C@@H](C)[C@@H]1[Si](C)(C)c1ccccc1
attributeMeasured: z-score
measValue: -1.05

molecule: C=C[C@H](OC)[C@@H](O)c1ccc(OC)c(O)c1
attributeMeasured: z-score
measValue: 1.69

molecule: COc1ccc(C(=O)Nc2ccc(CN3C(=O)[C@]4(O[C@H](CC(=O)N(CCO)Cc5ccccc5)[C@@H]([Si](C)(C)c5ccc(OC)cc5)[C@@H]4C)c4ccccc43)cc2)cc1
attributeMeasured: z-score
measValue: -1.52

Record request: z-score value, item `C[N+](C)(C)CCCC[C@@H]1NC(=O)[C@H]2C[C@@H](C(=O)O)[C@@H](c3ccc(O)cc3)N2C1=O`
0.0336

Record request: z-score value, item O=C1OCCC/C=C\[C@H]2OC34C=CCN(Cc5ccccc5)C(=O)[C@H]3N(CCO)C(=O)[C@@H]4C12 (stereo partly drawn)
1.21

Record request: z-score value, item CC(C)C[C@H]1NC(=O)CNC(=O)[C@@]23C(=O)N[C@@H](Cc4ccccc4)C2[C@H](C)[C@@]2(C)O[C@H]2C3/C=C/C/C=C\CNC1=O (stereo partly drawn)
-0.899

Record request: z-score value, item `C=C(COC)C(=O)CC[C@H](OC(C)=O)c1ccccc1OCCO`
-0.699

Record request: z-score value, item `COC(=O)[C@@]1(Cc2ccccc2)[C@H]2c3cc(C(=O)N(C)C)n(Cc4nc5ccccc5[nH]4)c3C[C@H]2CN1C(=O)c1ccccc1`
0.858

* * *

test: inhibitors of hydroxyurea-induced Chk1 phosphorylation, primary screen, imaging, HeLa, phospho-Chk1 antibody, percent positive cells (AID 1186); conditions: hydroxyurea-induced phospho-Chk1 immunofluorescence imaging, higher = more signal
Lab note: anything with z-score at or over 0.2 counts as Fulfilled; the rest go in Not fulfilled.

compound: COc1ccc(CCNC(=O)[C@@]2(c3ccc([N+](=O)[O-])cc3)CC(=O)N(C3CCCCC3)[C@@H]2c2ccc(CO)cc2I)cc1
classification: Not fulfilled
//
compound: [N-]=[N+]=Nc1ccccc1C[C@@]1(C(=O)NCC(O)CO)N=C(c2ccc(OCCCO)cc2)O[C@@H]1c1ccccc1N=[N+]=[N-] (some centres not stated)
classification: Not fulfilled
//
compound: CN1C(=O)C2C(C1=O)C1C=C(CCCO)C2C(C2CC2)N1C (configuration not stated)
classification: Not fulfilled
//
compound: CCCCC(=C=CC[C@H](O)c1ccccc1OCCO)CCO
classification: Fulfilled
//
compound: C=CCNC(=O)[C@H]1[C@@H]2C(=O)O[C@@H](c3ccccc3)[C@@H](c3ccccc3)N2[C@@H](c2ccc(O)cc2)[C@]12C(=O)Nc1ccc(C#CCC(C(=O)OC)C(=O)OC)cc12
classification: Not fulfilled

Is z-score for `C=C(COC)/C(=C/C[C@@H](OC(C)=O)c1cccc(OCCO)c1)c1cnc2ccccc2c1` at or above 0.2?
Fulfilled

Is z-score for CC1CC/C=C\[C@H]2OC34C=CCN(CCN5CCOCC5)C(=O)[C@H]3N(C(CO)C(C)C)C(=O)[C@@H]4C2C(=O)O1 (some centres not stated) at or above 0.2?
Fulfilled

Is z-score for `C=C(COC)C(=O)CC[C@@H](OC(=O)c1ccccc1-c1ccccc1C(=O)O)c1ccccc1OCCO` at or above 0.2?
Fulfilled

Is z-score for N#Cc1ccc(NN2C(C(O)c3ccc(B(O)O)cc3)C=CC3CN(c4ccccc4)C(=O)C32)cc1 (configuration not stated) at or above 0.2?
Not fulfilled

Is z-score for CC1C2C(CCCO)=CC(C3C(=O)N(C)C(=O)C23)N1Cc1cccc(OC(F)(F)F)c1 (configuration not stated) at or above 0.2?
Not fulfilled

Is z-score for `COCCCNC(=O)[C@@]1(CCC(=O)OC(C)(C)C)N=C(c2ccc(OCCCO)cc2)O[C@H]1c1ccccc1` at or above 0.2?
Not fulfilled

Is z-score for `OCCCc1cc[n+](Cc2cc3c(cc2Br)OCO3)cc1` at or above 0.2?
Not fulfilled

Is z-score for `C=C[C@@H](CO)NS(=O)(=O)c1ccc(Br)cc1` at or above 0.2?
Not fulfilled

Is z-score for `C#CCN(C(=O)OC(C)(C)C)[C@H](CO)c1ccccc1` at or above 0.2?
Not fulfilled
